Assay: Cytotoxicity against mouse RAW264.7 cells at 100 uM after 48 hrs by MTT assay
Assay type: cell-based
Conditions: read-out: INH
Mark Criterion met only for cytotoxicity at 48 h, 100 µM values smaller than 40%; exact matches and larger values are Criterion not met.

> print(dat)
                               samplesmiles          group
1  COc1ccc(NC(=S)NC2CCN(CCn3c(=O)ccc4ncc(F)cc43)CC2)cc1  Criterion met

Data request: is_below(cytotoxicity at 48 h, 100 µM, 40%) for O=c1ccc2ncc(F)cc2n1CCN1CCC(NC(=S)NCc2ccccc2)CC1 ?
Data returned: Criterion not met

Data request: Let us now turn to Cc1ccc(NC(=S)NC2CCN(CCn3c(=O)ccc4ncc(F)cc43)CC2)cc1
Data returned: Criterion met

Data request: Let us now turn to COc1cnc2ccc(=O)n(CCN3CCC(NC(=S)Nc4ccc(C)cc4)CC3)c2c1
Data returned: Criterion met

Data request: Let us now turn to COc1cnc2ccc(=O)n(CCN3CCC(NC(=S)Nc4ccc(C(C)=O)cc4)CC3)c2c1
Data returned: Criterion met

Data request: Let us now turn to COc1cnc2ccc(=O)n(CCN3CCC(NC(=S)Nc4ccc([N+](=O)[O-])cc4)CC3)c2c1
Data returned: Criterion met

Data request: Let us now turn to O=c1ccc2ncc(F)cc2n1CCN1CCC(NC(=S)Nc2ccccc2)CC1
Data returned: Criterion not met

Data request: Let us now turn to Cc1ccc(NC(=O)NC2CCN(CCn3c(=O)ccc4ncc(F)cc43)CC2)cc1
Data returned: Criterion met

---

Give measured inhibition for each item. Keep answers brief.
Tested on: Mycobacterium tuberculosis
Experiment: Inhibition of Mycobacterium tuberculosis GyrA/GyrB using relaxed pBR322 as substrate at 0.97 uM after 30 mins by DNA supercoiling assay

Consider the reported inhibition for these compounds:
> print(dat)
                               samplesmiles  value
1  O=c1ccc2ncc(F)cc2n1CCN1CCC(NC(=S)Nc2ccc([N+](=O)[O-])cc2)CC1  > 63%
2  COc1cnc2ccc(=O)n(CCN3CCC(NC(=O)Nc4ccc(Cl)cc4)CC3)c2c1  > 83%
3  COc1cnc2ccc(=O)n(CCN3CCC(NC(=O)NCc4ccc(Cl)cc4)CC3)c2c1  > 98%

Give measured inhibition for every item shown.
1. COc1cnc2ccc(=O)n(CCN3CCC(NC(=O)Nc4ccccc4)CC3)c2c1
2. CC(=O)c1ccc(NC(=S)NC2CCN(CCn3c(=O)ccc4ncc(F)cc43)CC2)cc1

Data returned:
1: > 81%; 2: > 64%

---

Give measured cytotoxicity at 48 h, 100 µM for each item. Keep answers brief.
Test: Cytotoxicity against mouse RAW264.7 cells at 100 uM after 48 hrs by MTT assay
Format: cell-based
Conditions: read-out: INH
Answers are plain numbers, in %.

> print(dat)
                               samplesmiles                   measurename  unitstext  value
1  O=C(NCc1ccccc1)NC1CCN(CCn2c(=O)ccc3ncc(F)cc32)CC1  cytotoxicity at 48 h, 100 µM          %   27.4
2  COc1cnc2ccc(=O)n(CCN3CCC(NC(=O)NCc4ccccc4)CC3)c2c1  cytotoxicity at 48 h, 100 µM          %   28.3

Please look at the following compound next.
Data request: GET /values?readout=cytotoxicity at 48 h, 100 µM&item= O=c1ccc2ncc(F)cc2n1CCN1CCC(NC(=S)Nc2ccc([N+](=O)[O-])cc2)CC1
Data returned: 39.6

Data credit: ChEMBL document CHEMBL3351599
